Biological target: T1, RBFOX1 RRM (Homo sapiens, UniProt Q9NWB1 109-208)
T1 sequence: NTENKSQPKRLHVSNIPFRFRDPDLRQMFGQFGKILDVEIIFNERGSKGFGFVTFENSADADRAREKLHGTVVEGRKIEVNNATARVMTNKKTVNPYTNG
Test: EMSA; HiTS-Eq, 1 nM pool, 10 min; buffer printed only for the single-RNA assays: 10 mM Tris pH 7.5, 150 mM NaCl, 3.4 mM EDTA, 0.001% NP-40, 30 C
Settings: tags: His6 N-terminal (pET28a); label: 5' 32P
In all, about 16,000 sequences were measured (“ka relative to ugcaugu”: median about 0.0091, highest 2% from about 0.032 on). Shown is part of a subset that was picked to be rich in the highest values.
Experimental readout: binding signal

QUERY: Return binding signal for the following binder: ACGCAUC (DNA:RNA) RNA: GGGAGACCGGAAUUCAGAUUGUCCACGCAUCUUAAAUCCCGUCGUAGCCACCA DNA 1: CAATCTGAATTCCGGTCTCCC DNA 2: TGGTGGCTACGACGGGATT
RESULT: 0.00881 KA relative to UGCAUGU

QUERY: # return recorded binding signal for entry CCCCGCA (DNA:RNA) RNA: GGGAGACCGGAAUUCAGAUUGUCCCCCCGCAUUAAAUCCCGUCGUAGCCACCA DNA 1: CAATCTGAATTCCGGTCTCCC DNA 2: TGGTGGCTACGACGGGATT
RESULT: 0.0132 KA relative to UGCAUGU

QUERY: State its binding signal for this binder: AAUUAGC (DNA:RNA) RNA: GGGAGACCGGAAUUCAGAUUGUCCAAUUAGCUUAAAUCCCGUCGUAGCCACCA DNA 1: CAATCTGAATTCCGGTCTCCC DNA 2: TGGTGGCTACGACGGGATT
RESULT: 0.00552 KA relative to UGCAUGU

QUERY: Complete the entry with binding signal for GGCAGGC (DNA:RNA) RNA: GGGAGACCGGAAUUCAGAUUGUCCGGCAGGCUUAAAUCCCGUCGUAGCCACCA DNA 1: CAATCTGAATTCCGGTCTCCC DNA 2: TGGTGGCTACGACGGGATT
RESULT: 0.0103 KA relative to UGCAUGU

QUERY: Specify binding signal for UUGCGUG (DNA:RNA) RNA: GGGAGACCGGAAUUCAGAUUGUCCUUGCGUGUUAAAUCCCGUCGUAGCCACCA DNA 1: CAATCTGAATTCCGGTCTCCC DNA 2: TGGTGGCTACGACGGGATT and stop.
RESULT: 0.0447 KA relative to UGCAUGU

QUERY: Find the measured binding signal of UGCAUGU (DNA:RNA) RNA: GGGAGACCGGAAUUCAGAUUGUCCUGCAUGUUUAAAUCCCGUCGUAGCCACCA DNA 1: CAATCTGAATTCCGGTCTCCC DNA 2: TGGTGGCTACGACGGGATT and report it.
RESULT: 1 KA relative to UGCAUGU

QUERY: Name the recorded binding signal of the binder listed here: UUGGGUG (DNA:RNA) RNA: GGGAGACCGGAAUUCAGAUUGUCCUUGGGUGUUAAAUCCCGUCGUAGCCACCA DNA 1: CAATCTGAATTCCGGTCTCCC DNA 2: TGGTGGCTACGACGGGATT
RESULT: 0.0408 KA relative to UGCAUGU

QUERY: Please give measured binding signal of the following entry: UGCAUUU (DNA:RNA) RNA: GGGAGACCGGAAUUCAGAUUGUCCUGCAUUUUUAAAUCCCGUCGUAGCCACCA DNA 1: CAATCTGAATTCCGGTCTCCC DNA 2: TGGTGGCTACGACGGGATT
RESULT: 0.0179 KA relative to UGCAUGU

QUERY: Look up and state reported binding signal for CUGCAUG (DNA:RNA) RNA: GGGAGACCGGAAUUCAGAUUGUCCCUGCAUGUUAAAUCCCGUCGUAGCCACCA DNA 1: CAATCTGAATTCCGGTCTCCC DNA 2: TGGTGGCTACGACGGGATT
RESULT: 1.04 KA relative to UGCAUGU

QUERY: Could you please provide reported binding signal for CUUGUCC (DNA:RNA) RNA: GGGAGACCGGAAUUCAGAUUGUCCCUUGUCCUUAAAUCCCGUCGUAGCCACCA DNA 1: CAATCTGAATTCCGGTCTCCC DNA 2: TGGTGGCTACGACGGGATT ? Thanks!
RESULT: 0.0101 KA relative to UGCAUGU

QUERY: Read off the recorded binding signal for GCAUUGU (DNA:RNA) RNA: GGGAGACCGGAAUUCAGAUUGUCCGCAUUGUUUAAAUCCCGUCGUAGCCACCA DNA 1: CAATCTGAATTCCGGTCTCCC DNA 2: TGGTGGCTACGACGGGATT
RESULT: 0.0129 KA relative to UGCAUGU
